Property: melting point; scope: individual compounds

Worked set:
INSERT INTO results (compound, result) VALUES
  ('Cn1sc(=O)n(C)c1=O', '64 to 65 °C'),
  ('Cc1cc(C)c(Nc2nc(C)ncc2S(=O)(=O)c2ccc(N3CCOCC3)cc2)c(C)c1', '221 to 223 °C'),
  ('COc1ccc(CCNC(=O)CN)cc1OC1CCCC1', '57 to 60 °C'),
  ('COc1cc(C(=O)O)ccc1Cc1cn(C)c2ccc(CC3CCN(C)C3=O)cc12 (stereo not drawn)', '232 to 233 °C'),
  ('CC(C)CN1C(=O)[C@@H](CC(=O)O)O[C@H](c2ccccc2OCc2ccccc2)c2cc(Cl)ccc21 (relative stereo)', '194 to 197 °C');

Requested read-out: melting point. Entry: CC(N1CCN(c2ncn(Cc3ccc(C(F)(F)F)cc3)n2)CC1)C(O)(Cn1cncn1)c1ccc(F)cc1F (stereo not drawn)
69 to 72 °C

Ok, now COc1cc2ncc(F)c(Cl)c2cc1OC
159 to 160 °C

Another: O=C(NCc1ccc(Cl)cc1)c1cn2c(CO)cc3cccc(c1=O)c32
211 to 213 °C

Next compound: CCc1ccc(CC)n1Nc1ccc(N2CCOCC2)nn1
186 to 189 °C

Can you check CSc1cc2c(cc1F)C(=O)C(=O)N2 next?
296 °C

Another: CCCOCCOc1cc2c(-c3ccccc3)c(CC(=O)Nc3ccc(Cl)cc3C(F)(F)F)c(=O)oc2cc1Cl
170 to 171 °C

* * *

Catalogue of molecules with associated melting point

Examples from the recorded data:
INSERT INTO measurements (molecule, result) VALUES
  ('O=[N+]([O-])c1cccc(-c2ccnc3ccnn23)c1', '204 to 206 °C'),
  ('CCCc1c(O)ccc2c(C)c(CC(=O)OC)c(=O)oc12', '160 to 162 °C'),
  ('CCCc1c(OCCCCCCc2cccc(OCCCCCC(=O)O)c2CCC(=O)O)ccc2c1CCCC2=O', '100 to 101 °C'),
  ('Cc1ccc(O)cc1C(CCC(=O)O)Oc1cc(OCc2cccnc2)ccc1C#N (racemic)', '198 to 200 °C'),
  ('O=C(NCc1ccc(Cl)cc1)c1cn(CC2CCCO2)c2sc(CN3CCOCC3)cc2c1=O (stereo unspecified)', '191 to 195 °C');

Give the measured melting point of O=C(CCCC1CCCCC1)N1C(=O)OC[C@@H]1Cc1ccccc1 .
69 to 70 °C

Let us now turn to CN(C)CCCNC(=O)c1ccc(-c2nnc(CSCCCCOc3ccccc3)o2)cc1
87 to 93 °C

Item: COC(=O)c1ccc2c(c1)Sc1ccccc1N=C2N1CCOCC1
114 to 115 °C

Next entry: CCC(=Nc1ccc2nc(N3CCN(C)CC3)c(N3CCN(C)CC3)nc2c1)N(C)C
173 to 175 °C

Another molecule: CCOC(=O)/C=C/c1cc2c(Nc3ccc4[nH]ccc4c3)c(C#N)cnc2s1
226 °C

Could you do the same for CCCc1cc(C(=O)O)nn1C , please?
120 to 122 °C

* * *

// values below are reported melting point

Sample answers from the record:
INSERT INTO results (molecule, result) VALUES
  ('CC(C)(C)CCNC(=O)c1ccc(C#N)cc1', '154 to 157 °C'),
  ('COc1cccc(NC(=O)NC2N=C(c3ccccc3F)c3ccccc3N(C)C2=O)c1 (configuration not stated)', '271 to 273 °C');

Please find the next molecule below.
Dear colleague, I am looking for the recorded melting point of the following molecule: O=C(N[C@H](Cc1ccc(C(F)(F)F)cc1)[C@@H](O)c1ccc(F)cc1)c1c2ccccc2cc2ccccc12 (racemic)
251 to 252 °C
